Parameter: IC50. Scope: all listed entries.
# System: recombinant human NaV1.8 stably transfected HEK cells (Homo sapiens)
# Construct: expressed in transfected cells; host or cells: HEK cells, stably transfected
# Experiment summary: Compound profiling on NaV1.8, human NaV1.8 cell line, SyncroPatch384PE automated patch clamp assay (Example 115, third set of compounds, Table 27)
# Assay type: cell-based
# Measurement conditions: resting state block (P1 measurement), human NaV1.8 HEK cells, Table 27 (third set of compounds), read-out: P1 IC50

Compound: COc1cc(F)ccc1Oc1nnc(C(F)(F)F)cc1C(=O)Nc1cncc(S(N)(=O)=O)c1
IC50: ≤ 200 nM
--
Compound: COc1cc(F)ccc1Oc1nnc(C(F)(F)F)cc1C(=O)Nc1cccc(-c2nncn2C)c1
IC50: 1000 to 5000 nM
--
Compound: COc1cc(F)ccc1Oc1nnc(C(F)(F)F)cc1C(=O)Nc1cccc(-n2cnnc2)c1
IC50: 1000 to 5000 nM
--
Compound: Cc1cc(F)ccc1Oc1nnc(C(F)(F)F)cc1C(=O)Nc1cc[nH]c(=O)c1C
IC50: > 5000 nM
--
Compound: COc1cc(F)ccc1Oc1nnc(C(F)(F)F)cc1C(=O)Nc1cc(S(C)(=O)=O)ccc1F
IC50: 201 to 500 nM

Incoming: Provide measured IC50 value, entry: "O=C(Nc1ccc[n+]([O-])c1)c1cc(C(F)(F)F)nnc1Oc1ccc(F)cc1F"
Outgoing: 1000 to 5000 nM

* * *

# System: recombinant human NaV1.8 stably transfected HEK cells (Homo sapiens, UniProt Q9Y5Y9)
# Construct: expressed in transfected cells; host or cells: HEK cells, stably transfected
# Experiment summary: Compound profiling on NaV1.8, human NaV1.8 cell line, SyncroPatch384PE automated patch clamp assay (Example 115, third set of compounds, Table 27)
# Format: cell-based
# Measurement conditions: inactivated state block (P2 measurement), human NaV1.8 HEK cells, Table 27 (third set of compounds), read-out: P2 IC50
pIC50: −log10 of the molar value.
Reported pIC50 is given for each of the following compounds.

Recorded pIC50, per entry:
Compound: Cc1cc(C(F)(F)F)ccc1Oc1nnc(C(F)(F)F)cc1C(=O)Nc1cccc(S(C)(=O)=O)c1
pIC50: ≥ 6.70
--
Compound: COc1cc(F)ccc1Oc1nnc(C(F)(F)F)cc1C(=O)Nc1cccc(C(N)=O)c1
pIC50: ≥ 6.70
--
Compound: COc1cc(C#N)ccc1Oc1nnc(C(F)(F)F)cc1C(=O)Nc1cc(S(C)(=O)=O)ccc1F
pIC50: 6.30 to 6.70
--
Compound: CS(=O)(=O)c1cccc(NC(=O)c2cc(C(F)(F)F)nnc2Oc2cc(OC(F)(F)F)ccc2F)c1
pIC50: 6.00 to 6.30
--
Compound: Cc1cc(F)ccc1Oc1nnc(C(F)(F)F)cc1C(=O)Nc1ccc(C)c(S(C)(=N)=O)c1 (stereo not shown)
pIC50: 6.30 to 6.70

Incoming: Dear colleague, please send me the reported pIC50 for "COc1cc(F)ccc1Oc1nnc(C(F)(F)F)cc1C(=O)Nc1cccc(S(C)(=O)=O)n1" when you can.
Outgoing: 5.30 to 6.00

Incoming: Return reported pIC50. Input compound: "COc1ccc(F)cc1Oc1nnc(C(F)(F)F)cc1C(=O)Nc1cccc(S(C)(=O)=O)c1"
Outgoing: 5.30 to 6.00

* * *

# System: recombinant human NaV1.8 stably transfected HEK cells (Homo sapiens)
# Construct: expressed in transfected cells; host or cells: HEK cells, stably transfected
# Experiment summary: Compound profiling on NaV1.8, human NaV1.8 cell line, SyncroPatch384PE automated patch clamp assay (Example 102, first set of compounds, Table 16)
# Assay type: cell-based
# Measurement conditions: inactivated state block (P2 measurement), human NaV1.8 HEK cells, Table 16 (first set of compounds), read-out: P2IC50
Recorded IC50, one value per entry.

Compound: COc1cc(C#N)ccc1Oc1nnc(-c2ccc(C#N)cc2)c(C)c1C(=O)Nc1cccc(S(C)(=N)=O)c1 (stereo not drawn)
System: recombinant human NaV1.8 stably transfected HEK cells (Homo sapiens)
IC50: 20 to 40 nM

Compound: COc1cc(C#N)ccc1Oc1nnc(-c2ncco2)c(C)c1C(=O)Nc1cccc(S(C)(=N)=O)c1 (stereo not drawn)
System: recombinant human NaV1.8 stably transfected HEK cells (Homo sapiens)
IC50: 200 to 500 nM

Compound: Cc1cc(F)ccc1Oc1ncc(C#N)cc1C(=O)Nc1cccc(S(C)(=N)=O)c1 (stereo not drawn)
System: recombinant human NaV1.8 stably transfected HEK cells (Homo sapiens)
IC50: 200 to 500 nM

Compound: COc1cc(C#N)ccc1Oc1nnc(C(F)(F)F)c(C)c1C(=O)Nc1cccc([S@](C)(=N)=O)c1 (single isomer, unassigned)
System: recombinant human NaV1.8 stably transfected HEK cells (Homo sapiens)
IC50: ≤ 20 nM

Compound: CCOc1ncc(C(F)(F)F)cc1C(=O)Nc1cccc(S(C)(=O)=O)c1
System: recombinant human NaV1.8 stably transfected HEK cells (Homo sapiens)
IC50: 200 to 500 nM

Incoming: Give reported IC50 value for "COc1cc(F)ccc1Oc1nnc(C(F)(F)F)c(C)c1C(=O)Nc1ccc(C(N)=O)cc1"
Outgoing: ≤ 20 nM

Incoming: Let me know recorded IC50 for "Cc1nc(C#N)ccc1Oc1ncc(C(F)(F)F)cc1C(=O)Nc1cccc(S(C)(=O)=O)c1" , thanks.
Outgoing: ≤ 20 nM

Incoming: Determine its reported IC50: "CS(=O)(=O)c1cccc(NC(=O)c2cc(C(F)(F)F)cnc2Oc2ccc(OC(F)F)cc2)c1"
Outgoing: 20 to 40 nM

Incoming: Please report IC50 for the following compound: COc1cc(C#N)ccc1Oc1nc(C(F)(F)F)nc(C)c1C(=O)Nc1cccc(S(C)(=N)=O)c1 (stereo not drawn)
Outgoing: ≤ 20 nM

Incoming: Tell us which IC50 value is on record for Cc1cc(F)ccc1Oc1nnc(N2CC(F)C2)c(C)c1C(=O)Nc1cccc(S(C)(=N)=O)c1 (stereo not drawn)
Outgoing: 200 to 500 nM

* * *

# System: recombinant human NaV1.8 stably transfected HEK cells (Homo sapiens, UniProt Q9Y5Y9)
# Construct: expressed in transfected cells; host or cells: HEK cells, stably transfected
# Experiment summary: Compound profiling on NaV1.8, human NaV1.8 cell line, SyncroPatch384PE automated patch clamp assay (Example 102, first set of compounds, Table 16)
# Assay type: cell-based
# Measurement conditions: resting state block (P1 measurement), human NaV1.8 HEK cells, Table 16 (first set of compounds), read-out: P1IC50
Experimental endpoint: IC50

Consider the following illustrative entries.
Compound: COc1cc(C#N)ccc1Oc1nc(C(F)(F)F)nc(C)c1C(=O)Nc1cccc(C(N)=O)c1
IC50: 40 to 200 nM
--
Compound: CS(=O)(=O)c1cccc(NC(=O)c2cc(C(F)(F)F)cnc2Oc2ccn3ccnc3c2)c1
IC50: 200 to 500 nM
--
Compound: Cc1cc(C(F)(F)F)c(C)cc1Oc1ncc(C(F)(F)F)cc1C(=O)Nc1cccc(S(C)(=O)=O)c1
IC50: 200 to 500 nM
--
Compound: Cc1nc(C(F)(F)F)ccc1Oc1nnc(C(F)(F)F)c(C)c1C(=O)Nc1cccc(S(C)(=O)=O)c1
IC50: ≤ 20 nM
--
Compound: COc1c(Oc2nnc3c(c2C(=O)Nc2cccc(S(C)(=N)=O)c2)CCC3)ccc(F)c1F (stereo not shown)
IC50: 200 to 500 nM
--
Compound: COc1ncc(Oc2ncc(C(F)(F)F)cc2C(=O)Nc2cccc(C(N)=O)c2)cc1F
IC50: 200 to 500 nM

Incoming: Look up and report measured IC50 for this entry: "Cc1nc(F)ccc1Oc1ncc(C(F)(F)F)c(C)c1C(=O)Nc1cccc([S@](C)(=N)=O)c1"
Outgoing: ≤ 20 nM

* * *

Reported IC50 is given for each of the following compounds.
# System: recombinant human NaV1.8 stably transfected HEK cells (Homo sapiens, UniProt Q9Y5Y9)
# Construct: expressed in transfected cells; host or cells: HEK cells, stably transfected
# Experiment summary: Compound profiling on NaV1.8, human NaV1.8 cell line, SyncroPatch384PE automated patch clamp assay (Example 102, first set of compounds, Table 16)
# Type: cell-based
# Measurement conditions: resting state block (P1 measurement), human NaV1.8 HEK cells, Table 16 (first set of compounds), read-out: P1IC50

Compound: COc1c(Oc2nnc(C(F)(F)F)c(C)c2C(=O)Nc2cccc(C(N)=O)c2)ccc(F)c1F
IC50: ≤ 20 nM

Shifting focus to the compound that follows.
Incoming: Give the reported value of IC50 for this record: "COc1cc(C#N)ccc1Oc1nnc(C(F)(F)F)c(C)c1C(=O)Nc1cccc(C(=O)N2CC(C#N)C2)c1"
Outgoing: 200 to 500 nM

* * *

# System: human NaV1.8 (Homo sapiens)
# Sequence (Q9Y5Y9 whole entry): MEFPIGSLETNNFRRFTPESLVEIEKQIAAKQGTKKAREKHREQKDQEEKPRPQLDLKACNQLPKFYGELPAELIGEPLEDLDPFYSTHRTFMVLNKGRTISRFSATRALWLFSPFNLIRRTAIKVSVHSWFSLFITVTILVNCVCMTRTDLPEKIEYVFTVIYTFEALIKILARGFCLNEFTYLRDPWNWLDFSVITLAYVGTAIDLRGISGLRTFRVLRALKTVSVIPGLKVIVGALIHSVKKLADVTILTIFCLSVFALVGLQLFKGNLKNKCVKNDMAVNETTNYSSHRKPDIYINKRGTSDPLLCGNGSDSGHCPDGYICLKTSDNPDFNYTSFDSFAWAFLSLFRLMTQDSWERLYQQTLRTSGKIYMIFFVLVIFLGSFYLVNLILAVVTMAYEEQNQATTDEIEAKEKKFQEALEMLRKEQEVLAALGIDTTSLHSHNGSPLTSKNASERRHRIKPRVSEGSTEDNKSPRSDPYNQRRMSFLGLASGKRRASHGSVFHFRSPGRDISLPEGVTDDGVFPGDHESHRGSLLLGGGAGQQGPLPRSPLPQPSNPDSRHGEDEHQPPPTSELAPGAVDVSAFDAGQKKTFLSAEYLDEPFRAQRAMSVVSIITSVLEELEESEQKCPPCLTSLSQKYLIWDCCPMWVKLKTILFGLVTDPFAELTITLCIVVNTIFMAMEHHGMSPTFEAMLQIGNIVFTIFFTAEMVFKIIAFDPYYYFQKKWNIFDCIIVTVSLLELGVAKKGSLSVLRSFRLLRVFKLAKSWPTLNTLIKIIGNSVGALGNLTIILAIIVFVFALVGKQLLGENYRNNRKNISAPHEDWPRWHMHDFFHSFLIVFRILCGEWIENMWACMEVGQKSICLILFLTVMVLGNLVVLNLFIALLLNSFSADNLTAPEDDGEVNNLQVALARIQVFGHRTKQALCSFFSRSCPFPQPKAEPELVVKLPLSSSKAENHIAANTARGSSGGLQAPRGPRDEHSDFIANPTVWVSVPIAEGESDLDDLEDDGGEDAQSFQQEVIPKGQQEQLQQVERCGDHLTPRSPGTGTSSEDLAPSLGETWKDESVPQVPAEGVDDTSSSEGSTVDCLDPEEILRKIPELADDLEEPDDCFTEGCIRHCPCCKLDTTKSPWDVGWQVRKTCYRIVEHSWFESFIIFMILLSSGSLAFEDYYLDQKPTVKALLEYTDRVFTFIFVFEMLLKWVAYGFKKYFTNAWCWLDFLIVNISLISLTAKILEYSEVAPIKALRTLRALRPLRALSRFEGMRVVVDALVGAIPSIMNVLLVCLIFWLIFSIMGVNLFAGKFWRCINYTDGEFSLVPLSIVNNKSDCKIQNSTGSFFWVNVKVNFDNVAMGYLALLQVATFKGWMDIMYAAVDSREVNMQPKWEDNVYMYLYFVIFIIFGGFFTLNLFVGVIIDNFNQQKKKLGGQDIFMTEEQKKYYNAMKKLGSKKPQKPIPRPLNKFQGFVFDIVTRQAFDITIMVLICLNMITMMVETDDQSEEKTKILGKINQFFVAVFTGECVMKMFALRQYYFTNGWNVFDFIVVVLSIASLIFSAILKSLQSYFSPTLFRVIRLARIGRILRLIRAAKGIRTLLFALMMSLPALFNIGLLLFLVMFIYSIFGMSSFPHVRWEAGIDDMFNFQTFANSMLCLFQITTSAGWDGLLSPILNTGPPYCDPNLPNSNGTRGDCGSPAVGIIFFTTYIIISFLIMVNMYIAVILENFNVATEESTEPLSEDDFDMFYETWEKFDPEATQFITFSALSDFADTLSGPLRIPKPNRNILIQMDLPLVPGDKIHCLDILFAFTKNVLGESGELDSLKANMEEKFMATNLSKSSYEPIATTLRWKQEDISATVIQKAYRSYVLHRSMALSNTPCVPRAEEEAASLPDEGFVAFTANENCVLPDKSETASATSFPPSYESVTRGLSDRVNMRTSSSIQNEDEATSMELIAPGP
# Experiment summary: Activity of representative NaV1.8 inhibitors, determined using one or more of the methods of Example 122 (method not specified)
# Format: cell-based
# Parameters: expressed in transfected cells; host or cells: HEK293 / HEK-293, stably expressing
# Measurement conditions: inhibition of the Nav1.8 channel; one or more of fluorescence, PatchXpress or IonFlux HT methods
Experimental endpoint: IC50

Example results:
Compound: CS(=O)(=O)c1cccc(NC(=O)c2cc(Cl)nnc2Oc2ccc(OC(F)(F)F)cc2)c1
IC50: < 500 nM
//
Compound: COc1cc(F)ccc1Oc1nnc(C(F)(F)F)cc1C(=O)Nc1cccc(S(C)(=N)=O)c1 (stereo not drawn)
IC50: < 500 nM

As a next step, examine the compound that follows.
Incoming: Tell us which IC50 value is on record for Cc1cc(F)ccc1Oc1nnc(C(F)(F)F)cc1C(=O)Nc1cccc(S(C)(=N)=O)c1 (stereo not drawn)
Outgoing: < 500 nM
